assay_target: pooled human IgG (human IgG1,2,3 and 4)
parameter: Enzyme Activity Endpoint Assay: scIgG

PRT-174 (protein) MANQEIRYSEVTPYHVTSVWTKGVTPPANFTQGEDVFHAPYVANQGWYDITKTFNGKDDLLCGAATAGNMLHWWFDQNKDQIKRYLEEHPEKQKINFNGEQMFDVKEAIDTKNHQLDSKLFEYFKEKAFPYLSTKHLGVFPDHVIDMFINGYRLSLTNHGPTPVKEGSKDPRGGIFDAVFTRGDQSKLLTSRHDFKEKNLKEISDLIKKELTEGKALGLSHTYANVRINHVINLWGADFDSNGNLKAIYVTDSDSNASIGMKKYFVGKNASGKVAISAKEIEDENIGAQVLGLFTLSTGQDSWNQTN ... 0 ng/µL
PRT-494 (protein) MVTSVWTKGVTPPTDFIKGEDVFHAPYKAGQGWYDITKTFNGKDDLLCGAATAGNMLHWWFDQNKEYIEAYLKKHPEKQKIMFGDQELLDVRKAINTKGSQKNSELFNYFRDKAFPNLSARRLGVMPDLVLDMFINGYYLNVTKTQTTDVNRTYQEKDKRGGIFDAVFTRGDQSKLLTSRHDFKEKGLKEISDLIKQELTEGKALGLSHTYANVRINHVINLWGADFDSDGNLKAIYVTDSDSNASIGMKKYFVGVNSAGKVAISAKEIKEDNIGAQVLGLFTLSTGQDIWNQTNLEHHHHHH ... 0 ng/µL
